System: Mycobacterium tuberculosis
procedure_text: Antimicrobial activity against Mycobacterium tuberculosis H37Rv in african green monkey Vero cells by microplate alamar blue assay
Type: functional, organism-based
condition_set: Vero
pIC50: −log10 of the molar value.
pIC50 reference

Known results for compounds:
[[record]]
line_notation = "COc1ccc(Cn2cnc3c(-c4cc5ccccc5o4)nc(Cl)nc32)cc1"
result = "> 6.29"

[[record]]
line_notation = "COc1ccc(Cn2cnc3c(-c4ccco4)nc(Cl)nc32)cc1"
result = "> 6.23"

[[record]]
line_notation = "COc1ccc(Cn2cnc3c(Cc4ccco4)nc(Cl)nc32)cc1"
result = "< 3.55"


# evaluate next
Query block: Answer with the recorded pIC50 for the compound listed here: "COc1ccc(Cn2cnc3c(/C=C4\OCc5ccccc54)nc(Cl)nc32)cc1"
Result block: > 6.32
